Molecular target: UniProtKB Q6N021
Details: MALDI assay; resynthesized/synthesized compounds, highest concentration 200 µM
Quick list: IC50 per entry.

Examples from the recorded data:
compound: O=S(=O)(c1ccc(F)c2ncc(I)cc12)N1CCCC1 [compound 10]
IC50: > 200 µM
--
compound: CNS(=O)(=O)c1ccc(F)c2ncc(I)cc12 [compound 9]
IC50: > 200 µM
--
compound: NS(=O)(=O)c1ccc(F)c2ncc(I)cc12 [compound 8]
IC50: 86.6 µM

Ask | Look up IC50: O=S(=O)(NCc1ccccc1)c1ccc(F)c2ncc(I)cc12 [compound 13]
Reply | > 200 µM
